System: MCF7
experimentalProtocol: Cytotoxicity against human MCF7 cells assessed as inhibition of cell proliferation by propidium iodide assay
Assay type: functional, cell-based
quantityMeasured: IC50 (nM)

>>> df
                                 smilestext  quantitymeasured  unitdescriptor  readoutvalue
0  C/C=C(\C)[C@H](O[C@@H]1O[C@H](CO)[C@@H](O)[C@H](O)[C@H]1O)[C@H](C)/C=C(C)/C=C/C/C(C)=C/Cc1nc(OC)cc(O)c1C              IC50              nM          2000

###

System: CWR22R
experimentalProtocol: Cytotoxicity against human 22Rv1 cells assessed as inhibition of cell proliferation by propidium iodide assay
Assay type: functional, cell-based
quantityMeasured: IC50 (nM)

>>> print(df.to_string())
                                 smilestext  readoutvalue
0  C/C=C(\C)[C@H](O[C@@H]1O[C@H](CO)[C@@H](O)[C@H](O)[C@H]1O)[C@H](C)/C=C(C)/C=C/C/C(C)=C/Cc1nc(OC)cc(O)c1C          2000

###

System: KB
experimentalProtocol: Cytotoxicity against human KB cells assessed as inhibition of cell growth by measuring effective dose
Assay type: functional
conditionSummary: read-out: ED50 (the source's name)
Reported EC50 values for a set of molecules
quantityMeasured: EC50 (µg/mL)

smilesText	readoutValue
C/C=C(\C)C(=O)O[C@H]1[C@H](O)[C@@H](O)[C@H](O[C@@H]2[C@H]3OC(=O)CCCCCCCCC[C@H](CCCCC)O[C@@H]4O[C@H](C)[C@@H](O)[C@H](O)[C@H]4O[C@@H]4O[C@H](COC(=O)[C@H](C)[C@@H](C)O)[C@@H](O)[C@H](O)[C@H]4O[C@H](O[C@H]2C)[C@@H]3OC(=O)C(C)C)O[C@@H]1C	1
CCCCC[C@H]1CCCCCCCCCC(=O)O[C@@H]2[C@@H](O[C@@H]3O[C@H](C)[C@@H](OC(=O)[C@@H](C)CC)[C@H](O)[C@H]3O)[C@H](C)O[C@@H](O[C@H]3[C@H](O[C@H]4[C@H](O1)O[C@H](C)[C@@H](O)[C@@H]4O)O[C@H](COC(=O)[C@@H](C)CC)[C@@H](O)[C@@H]3O)[C@@H]2OC(=O)[C@H](C)[C@@H](C)O	1
CCCCC[C@H]1CCCCCCCCCC(=O)O[C@@H]2[C@@H](O[C@@H]3O[C@H](C)[C@@H](OC(=O)[C@@H](C)CC)[C@H](O)[C@H]3O)[C@H](C)O[C@@H](O[C@H]3[C@H](O[C@H]4[C@H](O1)O[C@H](C)[C@@H](O)[C@@H]4O)O[C@H](COC(=O)[C@@H](C)[C@H](C)O)[C@@H](O)[C@@H]3O)[C@@H]2OC(=O)[C@@H](C)CC	1

###

experimentalProtocol: Cytotoxicity against mouse NIH/3T3 cells assessed as cell growth inhibition by alamar blue assay
Type: toxicity, cell-based, NIH3T3

smilesText	unitDescriptor	IC50
C/C=C(\C)C(=O)O[C@@H]1[C@@H](O)[C@H](O[C@H]2[C@H](O[C@H](CCC)CCCCC)O[C@H](C)[C@H](OC(C)=O)[C@@H]2O)O[C@H](COC(=O)CCC(=O)CCC)[C@H]1OC(=O)/C=C/c1ccccc1	nM	20.7
